# Experimental details: small-molecule microarray binders of probe aNog, primary screen, biochemical, biotinylated probe, 635/667 nm fluorescence (AID 1115);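 further: probe is biotinylated aNog protein used at 0.15 µg/mL for 1 h at 4 C; z-score combines 667 nm fluorescence of each spot with its signal to noise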
# Condition summary: higher = more signal
Attribute: composite z-score

Recorded composite z-score, per entry:
[
  {
    "Compound": "Cc1ccccc1C(O)C1C=CC2C(=O)NC(=O)C2N1Nc1ccc(Cl)cc1Cl (configuration not stated)",
    "composite z-score": 0.879
  },
  {
    "Compound": "COCCOC(=O)N1C(=O)[C@@]2(c3cc(C#CCC(C(=O)OC)C(=O)OC)ccc31)[C@H](c1ccc(OCCO)cc1)N1[C@H](c3ccccc3)[C@H](c3ccccc3)OC(=O)[C@H]1[C@@H]2C(=O)Nc1nc2ccccc2s1",
    "composite z-score": -0.114
  },
  {
    "Compound": "CN1C(=O)C2C=CC(C(O)c3cc(C(F)(F)F)cc(C(F)(F)F)c3)N(NC(=O)OC(C)(C)C)C2C1=O (configuration not stated)",
    "composite z-score": 2.04
  }
]

Using the record for COCCOC(=O)N1C(=O)[C@@]2(c3cc(C#CC4=CCCCC4)ccc31)[C@H](c1ccc(O)cc1)N1[C@H](c3ccccc3)[C@H](c3ccccc3)OC(=O)[C@H]1[C@@H]2C(=O)NC[C@H](O)c1ccccc1 , state its measured composite z-score. -0.614

Quick one: give measured composite z-score for CC=CC(O)C1C=CC2C(=O)NC(=O)C2N1Nc1ccccn1 (configuration not stated) 0.342

Find the measured composite z-score of O=C1c2ccccc2[C@](Cc2ccccc2I)(C(=O)NC2CC2)[C@H](c2ccc(CO)cc2)N1Cc1ccccc1C(F)(F)F and report it. -0.484

Fill in reported composite z-score for this entry: Cc1ccc(S[C@]2(C(=O)NCc3ccccc3)CC(=O)N(Cc3cc(C(F)(F)F)cc(C(F)(F)F)c3)[C@@H]2c2ccc(CO)cc2I)cc1 -0.216

---

# Experimental details: binders of probe aFGF2 on microarray, primary screen, stem cell growth factor project, biochemical, small-molecule microarray, fluorescence 635/667 (AID 1067);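 further: measures binding of biotinylated aFGF2 protein to printed compounds on slides; z-score merges feature fluorescence and signal-to-noise across triplicate slides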
# Condition summary: higher = more signal
Consider the following compounds and their measured composite z-score readings.

Example results:
[
  {
    "Compound": "O=C1N(CCS(=O)(=O)c2ccccc2)Cc2ccccc2[C@@H]2OC(c3ccc(OCCCO)cc3)=N[C@]12CCS(=O)(=O)c1ccccc1",
    "composite z-score": 0.115
  },
  {
    "Compound": "COCCOC(=O)N1C(=O)[C@@]2(c3cc(C#CC4(O)CCCCCC4)ccc31)[C@H](C(=O)N1CCN(c3ncccn3)CC1)[C@H]1C(=O)O[C@H](c3ccccc3)[C@H](c3ccccc3)N1[C@@H]2c1ccccc1OCCO",
    "composite z-score": -0.0195
  },
  {
    "Compound": "CC(C)C[C@@H]1NC(=O)[C@@]23C(=O)N[C@@H](Cc4ccccc4)C2[C@H](C)[C@@]2(C)O[C@H]2C3/C=C/C/C=C\\CNC(=O)[C@@H](C)NC1=O (stereo partly drawn)",
    "composite z-score": -0.0963
  },
  {
    "Compound": "NC(=O)[C@@H]1[C@H]2C(=O)O[C@H](c3ccccc3)[C@H](c3ccccc3)N2[C@H](c2ccc(OCCO)cc2)[C@@]12C(=O)Nc1ccc(C#CCCO)cc12",
    "composite z-score": 0.0122
  },
  {
    "Compound": "[N-]=[N+]=Nc1ccccc1C[C@]1(C(=O)O)N=C(c2ccc(OCCCO)cc2)O[C@H]1c1ccccc1",
    "composite z-score": -0.0785
  },
  {
    "Compound": "COc1ccc([Si](C)(C)[C@@H]2[C@@H](CCn3cc([C@H](O)c4ccccc4)nn3)O[C@]3(C(=O)N(c4ccccc4)c4ccccc43)[C@H]2C)cc1",
    "composite z-score": -0.0824
  },
  {
    "Compound": "COC(=O)C1=CC(CCCO)=CC(c2ccc(CN3CCCC3)cc2)N(Cc2cc3c(cc2Br)OCO3)C=C1C(=O)OC (stereo not drawn)",
    "composite z-score": 0.19
  },
  {
    "Compound": "C=CCC(OC(C)=O)[C@@H]1[C@@H](N(Cc2ccc(-c3cccc(C(F)(F)F)c3)o2)C(=O)c2cccc3ccccc23)c2cc(OCCCO)ccc2N1C(=O)Cc1ccc(OC)cc1 (stereo partly drawn)",
    "composite z-score": -0.143
  }
]

Provide composite z-score value for the following compound: C=CCC(OC(C)=O)[C@@H]1[C@@H](N(Cc2ccc(-c3ccccc3)cc2)C(=O)c2ccc(C)cc2)c2cc(OCCCO)ccc2N1C(=O)Cc1ccc2ccccc2c1 (stereo partly drawn) -0.107

Answer with reported composite z-score of C=C(COC)/C(=C/C[C@@H](OC(=O)c1ccncc1)c1ccccc1OCCO)c1cc(C(=O)OC)ccc1OC -0.0718

Identify measured composite z-score corresponding to COCCOC(=O)N1C(=O)[C@@]2(c3cc(C#CCNC(N)=O)ccc31)[C@H](c1ccc(O)cc1)N1[C@H](c3ccccc3)[C@H](c3ccccc3)OC(=O)[C@H]1[C@@H]2C(N)=O -0.161

Note composite z-score for the compound shown: C=CCC(OC(C)=O)[C@@H]1[C@@H](N(Cc2cc3ccccc3o2)C(=O)c2ccc(-c3ccccc3)cc2)c2cc(OCCCO)ccc2N1C(=O)Cc1ccc(OC)cc1 (stereo partly drawn) -0.0002

Return value of composite z-score for input Cc1ccc(F)cc1S(=O)(=O)N[C@@H]1CCN(Cc2cccc3[nH]ccc23)C1 , no commentary. -0.0894

---

# Experimental details: small-molecule microarray binders of probe aShh, primary screen, biochemical, biotinylated probe, 635/667 nm fluorescence (AID 1114);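 further: probe is biotin-labelled aShh protein from a stem cell growth factor screen; measures binding of labelled protein to compounds printed on the slide; score merges feature fluorescence at 667 nm with signal-to-noise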
# Condition summary: higher = more signal
Reported metric: composite z-score
Simply state the number, no unit and no words.

[
  {
    "Molecule": "CC(=O)n1cc(C(O)C2C=CC3C(=O)N(c4ccccc4)C(=O)C3N2Nc2ccc(C(C)C)cc2)c2ccccc21 (stereo not given)",
    "composite z-score": 0.0328
  },
  {
    "Molecule": "CCOC(=O)C1=CCC(c2ccccc2)N(S(=O)(=O)c2ccc([N+](=O)[O-])cc2)C1 (stereo not given)",
    "composite z-score": 0.0048
  },
  {
    "Molecule": "C=CCC(OC(C)=O)[C@@H]1[C@@H](N(Cc2ccc(-c3ccccc3)cc2)C(=O)Cc2ccc(F)cc2)c2cc(OCCCO)ccc2N1C(=O)Cc1ccc2ccccc2c1 (stereo not given in full)",
    "composite z-score": -0.153
  },
  {
    "Molecule": "O=C1C2C=CC(C(O)c3ccc(I)cc3)N(Nc3ccccc3)C2C(=O)N1c1ccccc1 (stereo not given)",
    "composite z-score": 0.184
  },
  {
    "Molecule": "COCC(=C=CC[C@H](O)c1cccc(OCCO)c1)C[C@H](O)COCc1ccccc1",
    "composite z-score": 0.191
  },
  {
    "Molecule": "C#C[C@@H](CC)O[Si](C#CCCCC#N)(C(C)C)C(C)C",
    "composite z-score": 0.0483
  },
  {
    "Molecule": "COCCOC(=O)N1C(=O)[C@@]2(c3ccccc31)[C@H](c1ccccc1OCCO)N1[C@H](c3ccccc3)[C@H](c3ccccc3)OC(=O)[C@H]1[C@@H]2C(N)=O",
    "composite z-score": 0.0121
  },
  {
    "Molecule": "COc1cc(C(O)C2C=CC3C(=O)N(Cc4ccccc4)C(=O)C3N2n2cnnc2)cc(OC)c1OC (stereo not given)",
    "composite z-score": 0.543
  },
  {
    "Molecule": "C=CCC(OC(C)=O)[C@@H]1[C@@H](N(Cc2ccc(-c3ccccc3)cc2)C(=O)c2ccc(C)cc2)c2cc(OCCCO)ccc2N1C(=O)Cc1ccc2ccccc2c1 (stereo not given in full)",
    "composite z-score": -0.349
  },
  {
    "Molecule": "CC(=O)NCCCC[C@@H]1NC(=O)[C@@H]2C[C@H](C(=O)NCCCCCCN)[C@H](c3cccc(OCCO)c3)N2C1=O",
    "composite z-score": -0.0066
  }
]

Complete the entry with composite z-score for CCOC(=O)C[C@H]1[C@H](OC(=O)c2cc3ccccc3oc2=O)[C@@H](NC(=O)c2ccc3ccccc3c2)c2cc(OCCCO)ccc2N1C(=O)Cc1ccc(OC)cc1 0.0588

Consider the molecule COc1cc2c(cc1O)C(c1cccs1)N(Cc1sc3ccccc3c1Cl)CC2 (stereo not given) . State its measured composite z-score. 0.199

Name the recorded composite z-score of the molecule listed here: COc1ccc([Si](C)(C)[C@H]2[C@H](CCO)O[C@@]3(C(=O)N(Cc4ccccc4)c4ccc(N5CCOC5=O)cc43)[C@@H]2C)cc1 0.0062

Specify composite z-score for C=C(C(=O)CC[C@@H](OC(=O)c1ccccc1-c1ccccc1C(=O)O)c1ccccc1OCCO)C(C)C and stop. 0.232

Supply reported composite z-score belonging to this molecule: COc1ccc(C#Cc2ccc3c(c2)[C@]2(C(=O)N3)[C@H](C(=O)Nc3nc4ccccc4s3)[C@H]3C(=O)O[C@H](c4ccccc4)[C@H](c4ccccc4)N3[C@@H]2c2ccccc2OCCO)cc1 -0.282
